Each entry below lists one item and its recorded residual activity value.
target: RPS6KB1 (human) (UniProt P23443); experiment: radiometric filter-binding kinase assay, Kinase HotSpot; details: compound 0.5 µM; ATP 10 µM
Sequence (P23443 whole entry, looked up): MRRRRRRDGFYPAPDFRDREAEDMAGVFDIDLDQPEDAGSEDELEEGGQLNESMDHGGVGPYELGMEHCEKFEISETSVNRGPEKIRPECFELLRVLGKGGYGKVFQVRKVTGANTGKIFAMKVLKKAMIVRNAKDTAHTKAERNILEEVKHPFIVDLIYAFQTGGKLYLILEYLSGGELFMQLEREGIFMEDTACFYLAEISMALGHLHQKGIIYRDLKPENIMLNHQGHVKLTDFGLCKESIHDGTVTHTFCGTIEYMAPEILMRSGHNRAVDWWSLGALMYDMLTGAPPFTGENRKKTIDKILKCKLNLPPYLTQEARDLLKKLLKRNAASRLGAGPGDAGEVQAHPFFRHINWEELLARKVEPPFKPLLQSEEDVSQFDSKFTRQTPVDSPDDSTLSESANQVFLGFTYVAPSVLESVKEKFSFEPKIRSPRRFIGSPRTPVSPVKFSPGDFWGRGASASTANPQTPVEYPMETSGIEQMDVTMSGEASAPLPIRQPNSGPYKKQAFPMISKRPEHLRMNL
Lab book: enter the figure in %, no units written.

As a guide, the following entries are already answered.
STRUCTURE	MEASUREMENT TARGET	residual activity, %
N#CCCc1ccc2c(c1)-c1[nH]c3ccc([N+](=O)[O-])cc3c1CC(=O)N2	RPS6KB1 (human) (UniProt P23443)	98
c1ccc(-c2cnc(Nc3ccc(OCCN4CCCC4)cc3)s2)cc1	RPS6KB1 (human) (UniProt P23443)	92.3

Proceed to the following item.
Ask | Provide value of residual activity for this record tested with RPS6KB1 (human) (UniProt P23443): Cn1cc(/C=C2\C(=O)Nc3ccc(S(N)(=O)=O)cc32)c2ccccc21
Reply | 44.3

* * *

Some compounds, each annotated with its measured residual activity.
target: MAP2K1 (human); assay: radiometric filter-binding kinase assay, Kinase HotSpot; conditions: compound 0.5 µM; ATP 10 µM
Hi! Could you send only the number? It should be in %, unit omitted.

STRUCTURE	VALUE UNIT	residual activity
FC(F)(F)c1ccc(/C=C/c2nc(COc3ccc(CCCCn4ccnn4)cc3)co2)cc1	%	120
CCCCc1c(-c2ccc(O)cc2)[nH]c2nccnc12	%	94.8
N#C/C(=C1/Nc2ccccc2S1)c1ccnc(NCCc2cccnc2)n1	%	93.2
COc1cccc(-c2cc(=O)c3ccccc3o2)c1N	%	69.1
N#CCCc1ccc2c(c1)-c1[nH]c3ccc([N+](=O)[O-])cc3c1CC(=O)N2	%	97.1

Ask | Looking for the measured residual activity of COc1cc2ncnc(Nc3ccc(O)c(Br)c3)c2cc1OC , can you help?
Reply | 98.2

* * *

target: NEK3 (human); assay: radiometric filter-binding kinase assay, Kinase HotSpot; settings: compound 0.5 µM; ATP 10 µM
READOUT LABEL: residual activity
Write the numeric value and follow it with the unit.

Ask | Field: residual activity (NEK3 (human)). Entry: COc1cc2ncnc(Nc3ccc(O)c(Br)c3)c2cc1OC
Reply | 88.4%

Ask | Okay, and Cn1cc(/C=C2\C(=O)Nc3ccc(S(N)(=O)=O)cc32)c2ccccc21 ?
Reply | 66.2%

Ask | Same lookup for O=c1c2ccccc2[nH]c(=S)n1CCN1CCC(=C(c2ccc(F)cc2)c2ccc(F)cc2)CC1 , please.
Reply | 94%

Ask | Repeat for the following compound: Cc1cc(Nc2nc(-c3ccccc3)nc3ccccc23)n[nH]1
Reply | 101%

Ask | Moving on to the next compound: Nc1ncnc2c1cnn2-c1ccccc1
Reply | 93.5%

Ask | Quick one: COc1cc2c(cc1OC)-c1[nH]nc(Nc3cccc(F)c3)c1C2
Reply | 97.1%

Ask | Follow-up item: CCc1nc(-c2ccc(OC)cc2)[nH]c1-c1ccncc1
Reply | 92.4%

Ask | Repeat for the following compound: O=C(c1ccccc1)c1ccc(N2CCOCC2)cc1O
Reply | 95.6%

Ask | Then this compound: COc1cccc(-c2cc(=O)c3ccccc3o2)c1N
Reply | 102%

* * *

Known residual activity of a selection of molecules
target: LIMK1 (human) (UniProt P53667); experiment: radiometric filter-binding kinase assay, Kinase HotSpot; details: compound 0.5 µM; ATP 10 µM
Sequence (P53667 whole entry, looked up): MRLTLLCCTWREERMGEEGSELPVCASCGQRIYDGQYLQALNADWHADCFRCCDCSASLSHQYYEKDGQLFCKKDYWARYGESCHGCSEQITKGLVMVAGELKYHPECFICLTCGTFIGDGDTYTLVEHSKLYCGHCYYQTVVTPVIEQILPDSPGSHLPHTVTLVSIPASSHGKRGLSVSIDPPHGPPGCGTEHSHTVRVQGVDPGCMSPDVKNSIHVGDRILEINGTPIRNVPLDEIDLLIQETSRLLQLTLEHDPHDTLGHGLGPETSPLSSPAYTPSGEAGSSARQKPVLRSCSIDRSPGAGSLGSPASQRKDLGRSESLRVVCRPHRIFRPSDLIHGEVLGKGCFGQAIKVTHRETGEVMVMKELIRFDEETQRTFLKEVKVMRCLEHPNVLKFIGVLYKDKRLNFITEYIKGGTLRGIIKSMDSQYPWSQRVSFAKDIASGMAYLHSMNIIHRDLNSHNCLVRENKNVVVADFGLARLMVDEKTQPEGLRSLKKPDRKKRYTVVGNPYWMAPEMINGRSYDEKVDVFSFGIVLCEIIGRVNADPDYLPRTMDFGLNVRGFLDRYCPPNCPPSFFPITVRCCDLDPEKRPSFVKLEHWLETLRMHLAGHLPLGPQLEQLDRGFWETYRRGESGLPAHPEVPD
Output should be the measured figure followed by the unit it is expressed in.

STRUCTURE	TEST RESULT
Nc1ncnc2c1cnn2-c1ccccc1	89.1%
O=S(=O)(NCCNC/C=C/c1ccc(Br)cc1)c1cccc2cnccc12	90.6%

Now turn to the next molecule.
Ask | Requested field: residual activity. Item: O=c1c(-c2ccc(F)cc2)c(-c2ccncc2)[nH]n1-c1ccc(Cl)cc1
Reply | 91.5%

* * *

biological target: WNK3 (human) (UniProt Q9BYP7); assay: radiometric filter-binding kinase assay, Kinase HotSpot; settings: compound 0.5 µM; ATP 10 µM
Sequence (Q9BYP7 whole entry, looked up): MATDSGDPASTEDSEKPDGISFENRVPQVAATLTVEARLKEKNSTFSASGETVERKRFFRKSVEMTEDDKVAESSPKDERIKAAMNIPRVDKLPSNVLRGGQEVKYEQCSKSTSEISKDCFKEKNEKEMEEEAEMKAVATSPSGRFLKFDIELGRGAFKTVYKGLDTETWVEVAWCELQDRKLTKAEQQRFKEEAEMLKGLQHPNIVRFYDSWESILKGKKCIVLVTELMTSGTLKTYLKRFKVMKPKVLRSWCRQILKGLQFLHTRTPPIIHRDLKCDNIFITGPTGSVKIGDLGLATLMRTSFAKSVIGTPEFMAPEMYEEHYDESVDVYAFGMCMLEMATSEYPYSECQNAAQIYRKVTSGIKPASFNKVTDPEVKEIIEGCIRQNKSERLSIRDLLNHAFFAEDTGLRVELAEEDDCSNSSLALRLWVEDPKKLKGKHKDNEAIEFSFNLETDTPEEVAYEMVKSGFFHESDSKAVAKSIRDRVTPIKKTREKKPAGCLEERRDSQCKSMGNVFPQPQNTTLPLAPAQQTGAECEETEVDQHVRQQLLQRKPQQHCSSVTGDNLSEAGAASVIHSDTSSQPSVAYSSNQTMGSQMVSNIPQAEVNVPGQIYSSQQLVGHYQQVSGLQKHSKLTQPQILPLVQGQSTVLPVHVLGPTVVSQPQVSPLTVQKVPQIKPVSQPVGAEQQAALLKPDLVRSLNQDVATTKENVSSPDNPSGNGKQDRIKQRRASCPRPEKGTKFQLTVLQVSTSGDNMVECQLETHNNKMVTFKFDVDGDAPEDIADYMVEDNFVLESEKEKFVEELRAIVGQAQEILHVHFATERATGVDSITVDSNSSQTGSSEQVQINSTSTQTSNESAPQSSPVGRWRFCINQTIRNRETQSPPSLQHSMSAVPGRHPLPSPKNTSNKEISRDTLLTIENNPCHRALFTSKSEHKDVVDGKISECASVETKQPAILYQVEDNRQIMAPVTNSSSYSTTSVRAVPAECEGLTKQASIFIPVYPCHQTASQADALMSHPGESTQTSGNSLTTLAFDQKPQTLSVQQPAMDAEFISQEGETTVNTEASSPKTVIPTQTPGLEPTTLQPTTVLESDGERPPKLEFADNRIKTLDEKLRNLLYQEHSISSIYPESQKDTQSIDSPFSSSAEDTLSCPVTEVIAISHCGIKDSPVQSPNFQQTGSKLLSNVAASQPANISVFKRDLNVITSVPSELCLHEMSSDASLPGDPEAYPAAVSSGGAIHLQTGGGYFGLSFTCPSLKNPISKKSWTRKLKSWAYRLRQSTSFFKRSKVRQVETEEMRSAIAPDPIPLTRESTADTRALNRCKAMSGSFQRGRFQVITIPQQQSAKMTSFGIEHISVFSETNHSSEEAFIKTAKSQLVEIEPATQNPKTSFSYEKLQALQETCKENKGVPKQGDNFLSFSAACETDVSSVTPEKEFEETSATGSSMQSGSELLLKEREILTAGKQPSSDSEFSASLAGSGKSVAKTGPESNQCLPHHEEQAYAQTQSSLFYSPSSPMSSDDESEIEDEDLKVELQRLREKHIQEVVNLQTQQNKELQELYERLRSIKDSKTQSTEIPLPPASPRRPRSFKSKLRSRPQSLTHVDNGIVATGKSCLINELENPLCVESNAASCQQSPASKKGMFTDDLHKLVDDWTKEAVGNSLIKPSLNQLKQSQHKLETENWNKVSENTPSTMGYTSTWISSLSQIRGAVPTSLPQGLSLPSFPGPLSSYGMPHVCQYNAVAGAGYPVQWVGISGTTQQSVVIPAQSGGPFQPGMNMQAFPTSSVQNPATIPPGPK
# residual activity values compiled below
Answer with a number only, understood to be in %.

Some entries whose results are on file:
STRUCTURE	residual activity, %
O=C(O)c1ccc2c3c1cccc3c(=O)n1c3ccccc3nc21	95.8
O=c1c2ccccc2[nH]c(=S)n1CCN1CCC(=C(c2ccc(F)cc2)c2ccc(F)cc2)CC1	107
FC(F)(F)c1ccc(/C=C/c2nc(COc3ccc(CCCCn4ccnn4)cc3)co2)cc1	98.5

Ask | What does the record list as residual activity for CCc1nc(-c2ccc(OC)cc2)[nH]c1-c1ccncc1 ?
Reply | 97.3

Ask | Try N/C(=N\N=C/c1ccc(-c2cccc([N+](=O)[O-])c2)o1)N[N+](=O)[O-] next.
Reply | 96.6

Ask | Field entry: Nc1ncnc2c1cnn2-c1ccccc1
Reply | 97.2

Ask | Quick one: Cc1cc(Nc2nc(-c3ccccc3)nc3ccccc23)n[nH]1
Reply | 74.9

Ask | Then this molecule: O=C(c1ccccc1)c1ccc(N2CCOCC2)cc1O
Reply | 104

Ask | Also COc1cccc(-c2cc(=O)c3ccccc3o2)c1N ?
Reply | 96.3

Ask | Same read-out for O=C1NC(=O)c2c1c1c3ccccc3[nH]c1c1[nH]c3cc(Br)ccc3c21 ?
Reply | 92.3

* * *

target: MAP3K3 (human) (UniProt Q99759); assay: radiometric filter-binding kinase assay, Kinase HotSpot; details: compound 0.5 µM; ATP 10 µM
Sequence (Q99759 whole entry, looked up): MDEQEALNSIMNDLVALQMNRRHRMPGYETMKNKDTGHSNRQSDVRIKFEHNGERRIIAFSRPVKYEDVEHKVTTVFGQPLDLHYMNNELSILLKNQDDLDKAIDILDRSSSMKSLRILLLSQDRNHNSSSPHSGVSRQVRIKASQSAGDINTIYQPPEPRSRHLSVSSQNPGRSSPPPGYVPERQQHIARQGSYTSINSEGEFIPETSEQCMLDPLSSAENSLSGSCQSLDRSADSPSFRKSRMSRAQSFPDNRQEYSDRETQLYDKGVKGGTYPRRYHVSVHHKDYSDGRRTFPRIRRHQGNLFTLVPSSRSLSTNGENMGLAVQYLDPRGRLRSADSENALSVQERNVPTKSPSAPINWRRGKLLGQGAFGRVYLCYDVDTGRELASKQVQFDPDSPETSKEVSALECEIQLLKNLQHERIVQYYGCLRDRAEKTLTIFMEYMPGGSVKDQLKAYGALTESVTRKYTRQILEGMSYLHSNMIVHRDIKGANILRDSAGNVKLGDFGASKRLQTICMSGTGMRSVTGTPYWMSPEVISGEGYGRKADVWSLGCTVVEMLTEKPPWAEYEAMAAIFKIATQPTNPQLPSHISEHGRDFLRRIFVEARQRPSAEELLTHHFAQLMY
// values below are reported residual activity
Kindly answer with a numeric value in %, unit omitted.

Examples with answers:
STRUCTURE	residual activity, %
N#C/C(=C1/Nc2ccccc2S1)c1ccnc(NCCc2cccnc2)n1	94.7
O=c1c(-c2ccc(F)cc2)c(-c2ccncc2)[nH]n1-c1ccc(Cl)cc1	96.2
N/C(=N\N=C/c1ccc(-c2cccc([N+](=O)[O-])c2)o1)N[N+](=O)[O-]	93.8
O=C1NC(=O)c2c1c1c3ccccc3[nH]c1c1[nH]c3cc(Br)ccc3c21	105
O=C(O)c1ccc2c3c1cccc3c(=O)n1c3ccccc3nc21	81

Shifting focus to the compound that follows.
Ask | residual activity for CCc1nc(-c2ccc(OC)cc2)[nH]c1-c1ccncc1 ?
Reply | 99

* * *

target: UniProt Q96GD4; assay: radiometric filter-binding kinase assay, Kinase HotSpot; conditions: compound 0.5 µM; ATP 10 µM
Sequence (Q96GD4 whole entry, looked up): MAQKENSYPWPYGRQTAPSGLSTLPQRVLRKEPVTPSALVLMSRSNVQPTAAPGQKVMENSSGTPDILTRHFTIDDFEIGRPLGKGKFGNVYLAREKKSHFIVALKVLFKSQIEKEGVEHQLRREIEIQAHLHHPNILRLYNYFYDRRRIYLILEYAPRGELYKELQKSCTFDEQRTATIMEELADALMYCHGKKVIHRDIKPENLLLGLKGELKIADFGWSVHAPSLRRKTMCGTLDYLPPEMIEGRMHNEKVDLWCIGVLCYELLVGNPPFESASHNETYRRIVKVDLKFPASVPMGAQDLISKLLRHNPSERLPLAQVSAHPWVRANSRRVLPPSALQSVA
READOUT LABEL: residual activity (%)
I only need the number, in %, no unit after it.

Example entries and their recorded answers appear below.
STRUCTURE	MEASUREMENT TARGET	residual activity, %
O=C1NC(=O)c2cc(Nc3ccc(F)cc3)c(Nc3ccc(F)cc3)cc21	UniProt Q96GD4	99.7
Cn1cc(/C=C2\C(=O)Nc3ccc(S(N)(=O)=O)cc32)c2ccccc21	UniProt Q96GD4	10.5

Ask | I would be grateful if you could share the reported residual activity for Nc1ncnc2c1cnn2-c1ccccc1 .
Reply | 99.2

Ask | How about O=c1c2ccccc2[nH]c(=S)n1CCN1CCC(=C(c2ccc(F)cc2)c2ccc(F)cc2)CC1 ?
Reply | 102

Ask | Now give it for CCOc1cc2ncnc(Nc3cccc(Br)c3)c2cc1OCC too.
Reply | 91.9

Ask | Also, N#C/C(=C1/Nc2ccccc2S1)c1ccnc(NCCc2cccnc2)n1 please.
Reply | 94

Ask | Another compound: O=c1cc(N2CCOCC2)oc2c(-c3ccccc3)cccc12
Reply | 99.6

Ask | Item: COc1cc2c(cc1OC)-c1[nH]nc(Nc3cccc(F)c3)c1C2
Reply | 79.2

Ask | Next: O=c1c(-c2ccc(F)cc2)c(-c2ccncc2)[nH]n1-c1ccc(Cl)cc1
Reply | 95.1

Ask | Next record, please: CCCCc1c(-c2ccc(O)cc2)[nH]c2nccnc12
Reply | 66.9

Ask | Then what about the compound N#Cc1c(NC(=O)c2cccc3ccccc23)sc2c1CCCC2 ?
Reply | 103

Ask | Now consider COc1cc2c(N3CCN(C(=O)Nc4ccc(OC(C)C)cc4)CC3)ncnc2cc1OCCCN1CCCCC1 .
Reply | 89.6

* * *

Listing of recorded residual activity by entry.
molecular target: MAP3K9 (human) (UniProt P80192); assay: radiometric filter-binding kinase assay, Kinase HotSpot; conditions: compound 0.5 µM; ATP 10 µM
Sequence (P80192 whole entry, looked up): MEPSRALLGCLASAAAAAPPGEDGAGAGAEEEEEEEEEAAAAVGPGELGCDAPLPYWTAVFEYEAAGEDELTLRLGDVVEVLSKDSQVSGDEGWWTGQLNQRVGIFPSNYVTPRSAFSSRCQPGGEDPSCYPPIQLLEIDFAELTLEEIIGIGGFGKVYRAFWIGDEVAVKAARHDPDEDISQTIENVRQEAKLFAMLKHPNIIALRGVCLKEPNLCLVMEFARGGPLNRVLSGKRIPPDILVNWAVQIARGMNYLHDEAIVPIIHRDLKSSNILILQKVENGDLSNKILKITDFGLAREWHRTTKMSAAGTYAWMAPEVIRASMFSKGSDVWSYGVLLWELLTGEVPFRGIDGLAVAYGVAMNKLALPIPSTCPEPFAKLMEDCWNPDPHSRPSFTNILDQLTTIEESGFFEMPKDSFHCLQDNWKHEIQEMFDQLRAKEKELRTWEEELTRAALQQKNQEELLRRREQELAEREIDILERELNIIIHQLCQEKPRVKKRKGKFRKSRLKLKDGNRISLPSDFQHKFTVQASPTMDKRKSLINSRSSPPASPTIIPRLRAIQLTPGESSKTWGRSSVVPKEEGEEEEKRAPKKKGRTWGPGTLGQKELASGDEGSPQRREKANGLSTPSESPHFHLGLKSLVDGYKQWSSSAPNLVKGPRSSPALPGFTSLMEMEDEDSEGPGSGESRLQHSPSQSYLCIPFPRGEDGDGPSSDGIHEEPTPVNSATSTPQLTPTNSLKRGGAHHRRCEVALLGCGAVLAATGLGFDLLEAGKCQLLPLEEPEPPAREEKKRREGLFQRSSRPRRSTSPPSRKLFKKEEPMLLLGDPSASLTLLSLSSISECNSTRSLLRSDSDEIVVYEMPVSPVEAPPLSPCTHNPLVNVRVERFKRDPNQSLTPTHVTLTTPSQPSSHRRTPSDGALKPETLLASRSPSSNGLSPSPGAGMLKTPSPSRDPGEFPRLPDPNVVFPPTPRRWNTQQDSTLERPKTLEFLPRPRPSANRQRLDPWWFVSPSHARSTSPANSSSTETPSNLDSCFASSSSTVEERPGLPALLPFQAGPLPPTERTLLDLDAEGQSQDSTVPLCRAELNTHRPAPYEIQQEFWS
Quick reminder: number only, in %, skip the unit.

STRUCTURE	MEASUREMENT TARGET	residual activity (%)
O=C1NC(=O)c2cc(Nc3ccc(F)cc3)c(Nc3ccc(F)cc3)cc21	MAP3K9 (human) (UniProt P80192)	102

Ask | Report residual activity for N#CCCc1ccc2c(c1)-c1[nH]c3ccc([N+](=O)[O-])cc3c1CC(=O)N2 please.
Reply | 18.2

Ask | Now this one: CCCCc1c(-c2ccc(O)cc2)[nH]c2nccnc12
Reply | 37.3

Ask | Likewise for O=c1c(-c2ccc(F)cc2)c(-c2ccncc2)[nH]n1-c1ccc(Cl)cc1 ?
Reply | 103

Ask | // next record COc1cc2c(cc1OC)-c1[nH]nc(Nc3cccc(F)c3)c1C2
Reply | 90

Ask | Entry Cc1cc(Nc2nc(-c3ccccc3)nc3ccccc23)n[nH]1 please
Reply | 14.8

Ask | Ok, now COc1cccc(-c2cc(=O)c3ccccc3o2)c1N
Reply | 93.2

Ask | And what about the compound O=c1[nH]c2ccccc2n1C1CCN(Cc2ccc(-c3nc4cc5[nH]cnc5cc4nc3-c3ccccc3)cc2)CC1 ?
Reply | 93.9

Ask | Okay, and COc1cc2c(N3CCN(C(=O)Nc4ccc(OC(C)C)cc4)CC3)ncnc2cc1OCCCN1CCCCC1 ?
Reply | 108

Ask | Next compound: O=C(c1ccccc1)c1ccc(N2CCOCC2)cc1O
Reply | 112

Ask | Same thing, different compound: O=C(O)c1ccc2c3c1cccc3c(=O)n1c3ccccc3nc21
Reply | 64.4

Ask | N#C/C(=C1/Nc2ccccc2S1)c1ccnc(NCCc2cccnc2)n1 , same question.
Reply | 100

Ask | Next: c1ccc(-c2cnc(Nc3ccc(OCCN4CCCC4)cc3)s2)cc1
Reply | 94.3

Ask | Moving on to O=S(=O)(NCCNC/C=C/c1ccc(Br)cc1)c1cccc2cnccc12
Reply | 99.6

Ask | Now try CCc1nc(-c2ccc(OC)cc2)[nH]c1-c1ccncc1 .
Reply | 88.1

Ask | Queued: N#Cc1c(NC(=O)c2cccc3ccccc23)sc2c1CCCC2
Reply | 99.5

Ask | Repeat with Nc1ncnc2c1cnn2-c1ccccc1
Reply | 106

Ask | Next record, please: O=C1NC(=O)c2c1c1c3ccccc3[nH]c1c1[nH]c3cc(Br)ccc3c21
Reply | 7.57

Ask | Can you check O=c1cc(N2CCOCC2)oc2c(-c3ccccc3)cccc12 next?
Reply | 108
